assay: Cytotoxicity against human MRC5 cells assessed as inhibition of cell growth incubated for 72 hrs by MTS assay; type: toxicity, cell-based
parameter: IC50 at 72 h

Hi, could you look up IC50 at 72 h for each item in my list?
1. COc1ccc(N2C(=O)c3cc([C@@H]4CC[C@]5(C(=O)O)CC[C@]6(C)[C@H](CC[C@@H]7[C@@]8(C)CC[C@H](O)C(C)(C)[C@@H]8CC[C@]76C)[C@@H]45)cc(-c4ccccc4)c3C2=O)cc1
2. CC(=O)O[C@H]1CC[C@]2(C)[C@H]3CC[C@@H]4[C@H]5[C@H](c6cc7c(c(-c8ccccc8)c6)C(=O)N(c6nccs6)C7=O)CC[C@]5(C(=O)O)CC[C@@]4(C)[C@]3(C)CC[C@H]2C1(C)C
3. CC1(C)[C@@H](O)CC[C@]2(C)[C@H]3CC[C@@H]4[C@H]5[C@H](c6ccc7c(c6)C(=O)NC7=O)CC[C@]5(C(=O)O)CC[C@@]4(C)[C@]3(C)CC[C@@H]12
4. COC(=O)c1ccc([C@@H]2CC[C@]3(CO)CC[C@]4(C)[C@H](CC[C@@H]5[C@@]6(C)CC[C@H](O)C(C)(C)[C@@H]6CC[C@]54C)[C@@H]23)cc1C(=O)OC

OUTPUT:
1: > 50 µM; 2: 27.8 µM; 3: > 50 µM; 4: > 50 µM

Form field IC50 at 72 h, entry CC1(C)[C@@H](O)CC[C@]2(C)[C@H]3CC[C@@H]4[C@H]5[C@H](c6cc7c(c(-c8ccccc8)c6)C(=O)N(c6ccc(C#N)cc6)C7=O)CC[C@]5(C(=O)O)CC[C@@]4(C)[C@]3(C)CC[C@@H]12 : > 50 µM

====

test: Cytotoxicity against human MRC5 cells assessed as inhibition of cell growth incubated for 72 hrs by MTS assay; format: toxicity, cell-based
IC50 at 72 h strictly less than 30 µM = label 1. Otherwise label 0.

INPUT: Please indicate whether the reported IC50 at 72 h of COC(=O)c1ccc([C@@H]2CC[C@]3(C(=O)O)CC[C@]4(C)[C@H](CC[C@@H]5[C@@]6(C)CC[C@H](O)C(C)(C)[C@@H]6CC[C@]54C)[C@@H]23)cc1C(=O)OC is strictly below 30 µM.
OUTPUT: label 1

====

test: Cytotoxicity against human BJ cells assessed as inhibition of cell growth incubated for 72 hrs by MTS assay; format: toxicity, cell-based
parameter: IC50 at 72 h

Here's what some known entries look like.
smiles.code: CC(=O)Nc1ccc(N2C(=O)c3cc([C@@H]4CC[C@]5(C(=O)O)CC[C@]6(C)[C@H](CC[C@@H]7[C@@]8(C)CC[C@H](OC(C)=O)C(C)(C)[C@@H]8CC[C@]76C)[C@@H]45)cc(-c4ccccc4)c3C2=O)cc1
parameter: IC50 at 72 h
result: > 50 µM

smiles.code: CC1(C)[C@@H](O)CC[C@]2(C)[C@H]3CC[C@@H]4[C@H]5[C@H](c6cc7c(c(-c8ccccc8)c6)C(=O)N(c6ccc(N)cc6)C7=O)CC[C@]5(C(=O)O)CC[C@@]4(C)[C@]3(C)CC[C@@H]12
parameter: IC50 at 72 h
result: 40.6 µM

smiles.code: CC(=O)OC[C@]12CC[C@@H](c3ccc4c(c3)C(=O)NC4=O)[C@@H]1[C@H]1CC[C@@H]3[C@@]4(C)CC[C@H](OC(C)=O)C(C)(C)[C@@H]4CC[C@@]3(C)[C@]1(C)CC2
parameter: IC50 at 72 h
result: > 50 µM

smiles.code: CC(=O)Nc1ccc(N2C(=O)c3ccc([C@@H]4CC[C@]5(C(=O)O)CC[C@]6(C)[C@H](CC[C@@H]7[C@@]8(C)CC[C@H](OC(C)=O)C(C)(C)[C@@H]8CC[C@]76C)[C@@H]45)cc3C2=O)cc1
parameter: IC50 at 72 h
result: 31.2 µM

Hi team, please reply with IC50 at 72 h for each item in this list.
1. CC(=O)O[C@H]1CC[C@]2(C)[C@H]3CC[C@@H]4[C@H]5[C@H](c6cc7c(c(-c8ccccc8)c6)C(=O)NC7=O)CC[C@]5(CO)CC[C@@]4(C)[C@]3(C)CC[C@H]2C1(C)C
2. COc1ccc(N2C(=O)c3cc([C@@H]4CC[C@]5(C(=O)O)CC[C@]6(C)[C@H](CC[C@@H]7[C@@]8(C)CC[C@H](O)C(C)(C)[C@@H]8CC[C@]76C)[C@@H]45)cc(-c4ccccc4)c3C2=O)cc1

OUTPUT:
1: > 50 µM; 2: > 50 µM

Provide IC50 at 72 h values for the following items, in order.
1. CC1(C)[C@@H](O)CC[C@]2(C)[C@H]3CC[C@@H]4[C@H]5[C@H](c6ccc7c(c6)C(=O)N(c6ccccc6)C7=O)CC[C@]5(C(=O)O)CC[C@@]4(C)[C@]3(C)CC[C@@H]12
2. COc1ccc(N2C(=O)c3ccc([C@@H]4CC[C@]5(C(=O)O)CC[C@]6(C)[C@H](CC[C@@H]7[C@@]8(C)CC[C@H](O)C(C)(C)[C@@H]8CC[C@]76C)[C@@H]45)cc3C2=O)cc1
3. COC(=O)c1cc([C@@H]2CC[C@]3(C(=O)O)CC[C@]4(C)[C@H](CC[C@@H]5[C@@]6(C)CC[C@H](O)C(C)(C)[C@@H]6CC[C@]54C)[C@@H]23)cc(-c2ccccc2)c1C(=O)OC

OUTPUT:
["> 50 µM", "> 50 µM", "36.3 µM"]

====

test: Cytotoxicity against human BJ cells assessed as inhibition of cell growth incubated for 72 hrs by MTS assay; assay type: toxicity, cell-based
parameter: IC50 at 72 h

smiles.code: COC(=O)c1ccc([C@@H]2CC[C@]3(C(=O)O)CC[C@]4(C)[C@H](CC[C@@H]5[C@@]6(C)CC[C@H](O)C(C)(C)[C@@H]6CC[C@]54C)[C@@H]23)cc1C(=O)OC
IC50 at 72 h: 31.1 µM
//
smiles.code: CC(=O)O[C@H]1CC[C@]2(C)[C@H]3CC[C@@H]4[C@H]5[C@H](c6cc7c(c(-c8ccccc8)c6)C(=O)N(c6cc[nH]n6)C7=O)CC[C@]5(C(=O)O)CC[C@@]4(C)[C@]3(C)CC[C@H]2C1(C)C
IC50 at 72 h: 31.8 µM
//
smiles.code: COC(=O)c1cc([C@@H]2CC[C@]3(CO)CC[C@]4(C)[C@H](CC[C@@H]5[C@@]6(C)CC[C@H](O)C(C)(C)[C@@H]6CC[C@]54C)[C@@H]23)cc(-c2ccccc2)c1C(=O)OC
IC50 at 72 h: > 50 µM
//
smiles.code: CC(=O)O[C@H]1CC[C@]2(C)[C@H]3CC[C@@H]4[C@H]5[C@H](c6cc7c(c(-c8ccccc8)c6)C(=O)N(c6nccs6)C7=O)CC[C@]5(C(=O)O)CC[C@@]4(C)[C@]3(C)CC[C@H]2C1(C)C
IC50 at 72 h: 31.7 µM
//
smiles.code: CC1(C)[C@@H](O)CC[C@]2(C)[C@H]3CC[C@@H]4[C@H]5[C@H](c6cc7c(c(-c8ccccc8)c6)C(=O)NC7=O)CC[C@]5(C(=O)O)CC[C@@]4(C)[C@]3(C)CC[C@@H]12
IC50 at 72 h: 34.5 µM
//
smiles.code: CC1(C)[C@@H](O)CC[C@]2(C)[C@H]3CC[C@@H]4[C@H]5[C@H](c6cc7c(c(-c8ccccc8)c6)C(=O)N(c6ccc(C#N)cc6)C7=O)CC[C@]5(C(=O)O)CC[C@@]4(C)[C@]3(C)CC[C@@H]12
IC50 at 72 h: > 50 µM
//
smiles.code: CC1(C)[C@@H](O)CC[C@]2(C)[C@H]3CC[C@@H]4[C@H]5[C@H](c6cc(C#N)c(C#N)c(-c7ccccc7)c6)CC[C@]5(C(=O)O)CC[C@@]4(C)[C@]3(C)CC[C@@H]12
IC50 at 72 h: 36.2 µM
//
smiles.code: CC(=O)OC[C@]12CC[C@@H](c3cc4c(c(-c5ccccc5)c3)C(=O)NC4=O)[C@@H]1[C@H]1CC[C@@H]3[C@@]4(C)CC[C@H](OC(C)=O)C(C)(C)[C@@H]4CC[C@@]3(C)[C@]1(C)CC2
IC50 at 72 h: > 50 µM

Quick request: IC50 at 72 h for each listed item, please.
1. CC(=O)O[C@H]1CC[C@]2(C)[C@H]3CC[C@@H]4[C@H]5[C@H](c6ccc7c(c6)C(=O)N(c6cc[nH]n6)C7=O)CC[C@]5(C(=O)O)CC[C@@]4(C)[C@]3(C)CC[C@H]2C1(C)C
2. CC1(C)[C@@H](O)CC[C@]2(C)[C@H]3CC[C@@H]4[C@H]5[C@H](c6ccc7c(c6)C(=O)N(c6ccc(C#N)cc6)C7=O)CC[C@]5(C(=O)O)CC[C@@]4(C)[C@]3(C)CC[C@@H]12
3. COc1ccc(N2C(=O)c3ccc([C@@H]4CC[C@]5(CO)CC[C@]6(C)[C@H](CC[C@@H]7[C@@]8(C)CC[C@H](OC(C)=O)C(C)(C)[C@@H]8CC[C@]76C)[C@@H]45)cc3C2=O)cc1
4. CC(=O)O[C@H]1CC[C@]2(C)[C@H]3CC[C@@H]4[C@H]5[C@H](c6ccc7c(c6)C(=O)NC7=O)CC[C@]5(CO)CC[C@@]4(C)[C@]3(C)CC[C@H]2C1(C)C

OUTPUT:
["30 µM", "> 50 µM", "> 50 µM", "> 50 µM"]
